- MEASURED_ON: recombinant human PD-L1 ECD protein (Homo sapiens)
- Construct: against the recombinant human PD-L1 ECD protein were evaluated using SPR; purchased G&P Biosciences FCL0784B
- Sequence (Q9NZQ7 19-238 limits assumed): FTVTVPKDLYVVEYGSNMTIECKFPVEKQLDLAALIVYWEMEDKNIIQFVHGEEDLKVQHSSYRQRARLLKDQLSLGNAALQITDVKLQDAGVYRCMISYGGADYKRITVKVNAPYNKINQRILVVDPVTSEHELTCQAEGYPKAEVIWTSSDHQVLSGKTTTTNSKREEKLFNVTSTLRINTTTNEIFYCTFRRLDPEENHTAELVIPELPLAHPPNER
- EXPERIMENT_SUMMARY: SPR binding kinetics and affinity to immobilized human PD-L1
- CONDITION_SUMMARY: read-out: Ka
- Protocol: In such aspects, the equilibrium dissociate constant KD value against recombinant human PD-L1 can be determined according to an KD to PD-L1 SPR Assay. […] The results can be analyzed using the software of Bi data analysis software. Evaluation of Binding Kinetics and Affinity By Surface Plasmon Resonance (SPR). Binding affinities of the PD-L1 specific peptides for human PD-L1 protein were determined by SPR (B14500, Biosensing Instrument). […]
Residues, ends and D or L forms follow the SMILES beside them.
Please respond with reported kon for every item in the list.
One number for each entry, in M⁻¹ s⁻¹.

The examples below pair each entry with its known result.
MOLECULE	kon, M⁻¹ s⁻¹
CC(C)C[C@H](NC(=O)[C@H](CC(N)=O)NC(=O)[C@H](Cc1c[nH]c2ccccc12)NC(=O)[C@@H](NC(=O)[C@H](Cc1ccc(O)cc1)NC(=O)[C@H](Cc1ccc(O)cc1)NC(=O)[C@H](CO)NC(=O)[C@H](CCCNC(=N)N)NC(=O)[C@H](Cc1c[nH]cn1)NC(=O)[C@@H](N)Cc1c[nH]c2ccccc12)[C@@H](C)O)C(=O)N[C@@H](CC(N)=O)C(=O)N[C@H](C(=O)O)[C@@H](C)O [CLP002] (H-WHRSYYTWNLNT-OH; N-terminus and C-terminus assumed)	4520
CC(C)C[C@H](NC(=O)[C@@H](NC(=O)[C@@H]1CCCN1C(=O)[C@H](CC(C)C)NC(=O)[C@H](CO)NC(=O)[C@@H]1CCCN1C(=O)[C@H](CC(=O)O)NC(=O)[C@H](Cc1c[nH]cn1)NC(=O)[C@H](Cc1ccc(O)cc1)NC(=O)[C@@H](N)CC(=O)O)[C@@H](C)O)C(=O)N[C@@H](CCCNC(=N)N)C(=O)N[C@@H](CCCCN)C(=O)O [CLP004] (H-DYHDPSLPTLRK-OH; N-terminus and C-terminus assumed)	5140
C[C@H](NC(=O)[C@H](CCC(N)=O)NC(=O)[C@H](CC(N)=O)NC(=O)[C@H](C)NC(=O)[C@H](Cc1c[nH]cn1)NC(=O)[C@@H]1CCCN1C(=O)[C@H](CCCNC(=N)N)NC(=O)[C@H](Cc1ccccc1)NC(=O)[C@@H]1CCCN1C(=O)[C@H](Cc1ccc(O)cc1)NC(=O)[C@@H](N)Cc1c[nH]cn1)C(=O)N[C@@H](CO)C(=O)O [CLP001] (H-HYPFRPHANQAS-OH; N-terminus and C-terminus assumed)	5190

Alright, here's another molecule for you.
Form: molecule = CC(C)C[C@H](NC(=O)[C@H](Cc1c[nH]c2ccccc12)NC(=O)[C@H](CCCNC(=N)N)NC(=O)[C@H](Cc1c[nH]c2ccccc12)NC(=O)[C@H](CC(N)=O)NC(=O)[C@H](Cc1ccc(O)cc1)NC(=O)[C@H](CO)NC(=O)[C@H](Cc1ccccc1)NC(=O)[C@H](Cc1c[nH]cn1)NC(=O)[C@@H](N)Cc1c[nH]c2ccccc12)C(=O)N1CCC[C@H]1C(=O)N1CCC[C@H]1C(=O)O [CLP003] (H-WHFSYNWRWLPP-OH; N-terminus and C-terminus assumed) ; kon = 22600

###

- EXPERIMENT_SUMMARY: Cell viability of DU145 cells (CellTiter-Glo)
- Assay type: cell-based
- CONDITION_SUMMARY: human, read-out: % cell viability after incubation with 50 μM peptide
- Description: % cell viability after incubation with 50 μM peptide. White 96-well plates with clear bottom (Corning, RFE 3610) were seeded with DU145 cells at a density of 1×10^4 cells/well and incubated in a humidified atmosphere at 37° C. with a supply of 5% CO2. After 12 h, various peptide concentrations were added to the cells and incubated for 48 h. CellTiter-Glo kit (Promega, WI) was employed in the cell viability analysis by following the manufacturer's instructions.
Positions of bridges follow the written chain, without caps; N, C: chain ends. Residues, ends and D or L forms follow the SMILES beside them.
Please respond with reported viability at 48 h, 50 µM for every item in the list.

COMPOUND	viability at 48 h, 50 µM
CC(C)C[C@@H]1NC(=O)[C@H](CC(N)=O)NC(=O)[C@H](Cc2c[nH]c3ccccc23)NC(=O)[C@H]([C@@H](C)O)NC(=O)[C@H](Cc2ccc(O)cc2)NC(=O)[C@H](Cc2ccc(O)cc2)NC(=O)[C@H](CO)NC(=O)[C@H](CCCNC(=N)N)NC(=O)[C@H](Cc2c[nH]cn2)NC(=O)[C@@H](N)CSSC[C@@H](C(=O)O)NC(=O)[C@H](CC(N)=O)NC1=O [CLP2C14] (H-CHRSYYTWNLNC-OH; disulfide 1-12; N-terminus and C-terminus assumed)	~100%

Alright, here's another compound for you.
Form: compound = CC(C)C[C@H](NC(=O)[C@H](CC(N)=O)NC(=O)[C@H](Cc1c[nH]c2ccccc12)NC(=O)[C@@H]1CSSC[C@H](N)C(=O)N[C@@H](Cc2c[nH]cn2)C(=O)N[C@@H](CCCNC(=N)N)C(=O)N[C@@H](CO)C(=O)N[C@@H](Cc2ccc(O)cc2)C(=O)N[C@@H](Cc2ccc(O)cc2)C(=O)N1)C(=O)N[C@@H](CC(N)=O)C(=O)N[C@H](C(=O)O)[C@@H](C)O [CLP2C21] (H-CHRSYYCWNLNT-OH; disulfide 1-7; N-terminus and C-terminus assumed) ; viability at 48 h, 50 µM = ~100%

###

- EXPERIMENT_SUMMARY: Proteolytic stability in 50% human serum (LC-MS)
- Format: in vitro ADME
Positions of bridges follow the written chain, without caps; N, C: chain ends. Residues, ends and D or L forms follow the SMILES beside them.
Please respond with reported half-life for every item in the list.
Give bare numbers, in min.

Give one value of half-life per listed molecule.
1. CC(C)C[C@H](NC(=O)[C@H](CC(N)=O)NC(=O)[C@H](Cc1c[nH]c2ccccc12)NC(=O)[C@@H]1CSSC[C@H](N)C(=O)N[C@@H](Cc2c[nH]cn2)C(=O)N[C@@H](CCCNC(=N)N)C(=O)N[C@@H](CO)C(=O)N[C@@H](Cc2ccc(O)cc2)C(=O)N[C@@H](Cc2ccc(O)cc2)C(=O)N1)C(=O)N[C@@H](CC(N)=O)C(=O)N[C@H](C(=O)O)[C@@H](C)O [CLP2C21] (H-CHRSYYCWNLNT-OH; disulfide 1-7; N-terminus and C-terminus assumed)
2. CC(C)C[C@@H]1NC(=O)[C@H](CC(N)=O)NC(=O)[C@H](Cc2c[nH]c3ccccc23)NC(=O)[C@H]([C@@H](C)O)NC(=O)[C@H](Cc2ccc(O)cc2)NC(=O)[C@H](Cc2ccc(O)cc2)NC(=O)[C@H](CO)NC(=O)[C@H](CCCNC(=N)N)NC(=O)[C@H](Cc2c[nH]cn2)NC(=O)[C@@H](N)CSSC[C@@H](C(=O)O)NC(=O)[C@H](CC(N)=O)NC1=O [CLP2C14] (H-CHRSYYTWNLNC-OH; disulfide 1-12; N-terminus and C-terminus assumed)

[70.8, 38.1]

Form: molecule = C[C@@H](O)[C@H](NC(=O)[C@H](Cc1ccc(O)cc1)NC(=O)[C@H](Cc1ccc(O)cc1)NC(=O)[C@H](CO)NC(=O)[C@H](CCCNC(=N)N)NC(=O)[C@H](Cc1c[nH]cn1)NC(=O)[C@@H](N)Cc1c[nH]c2ccccc12)C(=O)N[C@@H](Cc1c[nH]c2ccccc12)C(=O)N[C@@H](CC(N)=O)C(=O)O [CLP2TR3] (H-WHRSYYTWN-OH; N-terminus and C-terminus assumed) ; half-life = 15
